- test.protocol: Tissue distribution at steady state, constant-rate infusion in rats
- Type: in vivo
- experimental.setup: Sprague Dawley, rat, intravenous, 0.8 mg/h, muscle, 10 h infusion, read-out: KP,ss
- Description: In this study, the extent of tissue distribution of IDP-73152 was also determined in rats. […] The tissue-to-plasma concentration ratio at steady state (KP,ss) was then calculated for each tissue using the following equation [23, 24, 25]:(8) KP,ss=Ctissue,ss/Cplasma,ss, where Ctissue,ss and Cplasma,ss represent the concentration of the compound in the tissue and plasma at steady-state. […]
metric.name: Kp at 10 h
One number for each entry.

Need Kp at 10 h, item CC(C)(C)[C@H](NC(=O)[C@H](CC1CCCC1)CN(O)C=O)C(=O)N1CCC(NCc2cc(F)c(F)cc2F)CC1 [IDP-73152]
1.37

---

- test.protocol: Tissue distribution at steady state, constant-rate infusion in rats
- Assay type: in vivo
- experimental.setup: Sprague Dawley, rat, intravenous, 0.8 mg/h, adipose tissue, 10 h infusion, read-out: KP,ss
metric.name: Kp at 10 h

Need Kp at 10 h, item CC(C)(C)[C@H](NC(=O)[C@H](CC1CCCC1)CN(O)C=O)C(=O)N1CCC(NCc2cc(F)c(F)cc2F)CC1 [IDP-73152]
0.853

---

- test.protocol: Metabolic stability in liver microsomes, rat
- Format: in vitro ADME
- experimental.setup: rat, liver microsomes, pH 7.4; rats; read-out: CLh calculated from the CLint,mic (converted)
metric.name: CLhep predicted at 1 μM (mL/min/kg)
Give bare numbers, in mL/min/kg.

Need CLhep predicted at 1 μM, item CC(C)(C)[C@H](NC(=O)[C@H](CC1CCCC1)CN(O)C=O)C(=O)N1CCC(NCc2cc(F)c(F)cc2F)CC1
28.2

---

- test.protocol: Physicochemical properties (Table S3)
metric.name: pKa
Numbers only.

Need pKa, item CC(C)(C)[C@H](NC(=O)[C@H](CC1CCCC1)CN(O)C=O)C(=O)N1CCC(NCc2cc(F)c(F)cc2F)CC1
8.8

---

- test.protocol: Unbound fraction in hepatocyte incubation, rat
- Assay type: in vitro ADME
- experimental.setup: hepatocytes (hepatocyte incubation mixture), rats hepatocyte incubation, read-out: fu,hep
metric.name: fraction unbound at 5 h

Need fraction unbound at 5 h, item CC(C)(C)[C@H](NC(=O)[C@H](CC1CCCC1)CN(O)C=O)C(=O)N1CCC(NCc2cc(F)c(F)cc2F)CC1
0.492

---

- test.protocol: in vitro
- Type: in vitro ADME
- experimental.setup: dog, microsomes
metric.name: fraction unbound at 5 h
One number for each entry.

Need fraction unbound at 5 h, item CC(C)(C)[C@H](NC(=O)[C@H](CC1CCCC1)CN(O)C=O)C(=O)N1CCC(NCc2cc(F)c(F)cc2F)CC1
0.507

---

- test.protocol: Caco-2 cell bidirectional permeability
- Format: in vitro ADME
- experimental.setup: human, Caco-2, Caco-2; read-out: recovery, A to B transport
- Description: In this study, bidirectional permeability assays were conducted as described in the literature, with minor modifications. […] On day 21, after seeding, the integrity of the cell monolayer was assessed by measuring the transepithelial electrical resistance using an epithelial voltohmmeter (EVOM and EVOMX, World Precision Instruments, Sarasota, FL, USA). […] The samples were stored at −80 °C until analysis and the concentration of the compound was determined by LC-MS/MS assay for IDP-73152 [10]. […]
metric.name: recovery at 2 h, 10 µM (%)
Give bare numbers, in %.

Need recovery at 2 h, 10 µM, item CC(C)(C)[C@H](NC(=O)[C@H](CC1CCCC1)CN(O)C=O)C(=O)N1CCC(NCc2cc(F)c(F)cc2F)CC1 [IDP-73152]
96.6
